Quick reference: Activity of the listed items.
System: Rattus norvegicus
Experiment: Antiinflammatory activity in Sprague-Dawley/Wistar rat assessed as decrease in carrageenan-induced hyperalgesia at 40 mg/kg, po administered 4 hrs after carrageenan-challenge measured after 120 mins (reference value: 31.4 +/- 3.7 g)
Assay type: functional
Could you give me the number in g? Just the number is fine.

Illustrative cases are given below, each with its answer.
ENTRY_SMILES: Cc1c(CCOCCO)cc(-c2ccc(S(C)(=O)=O)cc2)n1-c1ccc(F)c(F)c1
MEASURE: Activity
REPORTED_RESULT: 49.3

ENTRY_SMILES: Cc1c(CCOCCO)cc(-c2ccc(S(C)(=O)=O)cc2)n1-c1cccc(F)c1
MEASURE: Activity
REPORTED_RESULT: 39.5

ENTRY_SMILES: Cc1c(CCOCCO[N+](=O)[O-])cc(-c2ccc(S(C)(=O)=O)cc2)n1-c1ccc(F)c(F)c1
MEASURE: Activity
REPORTED_RESULT: 35.3

ENTRY_SMILES: Cc1c(CCOCCO[N+](=O)[O-])cc(-c2ccc(S(C)(=O)=O)cc2)n1-c1cccc(F)c1
MEASURE: Activity
REPORTED_RESULT: 34.3

Using the record for Cc1c(CCOCCO)cc(-c2ccc(S(C)(=O)=O)cc2)n1-c1ccc(F)cc1 , state its measured Activity.
47.6

* * *

We begin with a simple list: items and their reported IC50.
Assay: Inhibition of interleukin 1 beta-induced glycosaminoglycan release in bovine articular cartilage of metacarpophalangeal joints of feet treated 48 hrs after interleukin 1beta-challenge by DMB colorimetric assay
Assay type: functional, Bos taurus
Give your result in µM as a bare value.

ENTRY_SMILES: Cc1c(CCOCCO)cc(-c2ccc(S(C)(=O)=O)cc2)n1-c1ccc(F)cc1
UNITS_OF_MEASURE: µM
IC50: 33

Quick one: give measured IC50 for Cc1c(CCOCCO[N+](=O)[O-])cc(-c2ccc(S(C)(=O)=O)cc2)n1-c1ccc(F)cc1
1.5

* * *

Catalogue of minimal effective dose readings, one per entry.
Test system: Mus musculus
Assay: Antinociceptive activity in po dosed Swiss albino mouse assessed as reduction in number of acetic acid-induced writhing counted 5 mins after acetic acid challenge counted for 10 mins
Format: functional
Conditions: read-out: MED
Write the numeric value and follow it with the unit.

For orientation, consider the following solved cases.
ENTRY_SMILES: Cc1c(CCOCCO)cc(-c2ccc(S(C)(=O)=O)cc2)n1-c1ccccc1
minimal effective dose: 10 mg/kg

ENTRY_SMILES: Cc1c(CCOCCO[N+](=O)[O-])cc(-c2ccc(S(C)(=O)=O)cc2)n1-c1ccc(F)cc1
minimal effective dose: 10 mg/kg

ENTRY_SMILES: Cc1ccc(-c2cc(C(F)(F)F)nn2-c2ccc(S(N)(=O)=O)cc2)cc1
minimal effective dose: 3 mg/kg

ENTRY_SMILES: Cc1c(CCOCCO[N+](=O)[O-])cc(-c2ccc(S(C)(=O)=O)cc2)n1-c1ccccc1
minimal effective dose: 10 mg/kg

ENTRY_SMILES: Cc1c(CCOCCO)cc(-c2ccc(S(C)(=O)=O)cc2)n1-c1cccc(F)c1
minimal effective dose: 20 mg/kg

Attention now turns to another entry.
Report minimal effective dose for Cc1c(CCOCCO[N+](=O)[O-])cc(-c2ccc(S(C)(=O)=O)cc2)n1-c1cccc(F)c1
40 mg/kg

Taken from ChEMBL document CHEMBL2331234.
